- ASSAY COMMENT: APR_HepG2_CellLoss_72hr: Apredica 72-hour HepG2 Assay for Cell Loss (AID 2282915)
- CONDITION DETAILS: high-content imaging
The source made the active and inactive calls. The calls were made as follows: active = hit-call score of the fitted dose curve at least 0.9, where 1 is the maximum; inactive = score below 0.9.
Choose the fitting class; nothing outside active, inactive is accepted.

Sample answers from the record:
CN1CCN(Cc2cc(-c3ccc4[nH]c(=O)oc4c3)co2)[C@@H](c2ccc(F)cc2)C1 = active
CCCCCCCC=O = inactive
COc1ccc(S(=O)(=O)N2C(=O)[C@@](c3ccccc3OC)(N3C[C@H](O)C[C@H]3C(=O)N(C)C)c3cc(Cl)ccc32)c(OC)c1 = active

# evaluate next
Q: Record lookup: outcome of this test for "COCCOCCOC" ?
A: inactive
